We begin with a simple list: items and their reported ΔTm.
Biological target: DNA (cytosine-5)-methyltransferase 1 (Homo sapiens, UniProt P26358)
Sequence (P26358 whole entry, the tested form may be a part): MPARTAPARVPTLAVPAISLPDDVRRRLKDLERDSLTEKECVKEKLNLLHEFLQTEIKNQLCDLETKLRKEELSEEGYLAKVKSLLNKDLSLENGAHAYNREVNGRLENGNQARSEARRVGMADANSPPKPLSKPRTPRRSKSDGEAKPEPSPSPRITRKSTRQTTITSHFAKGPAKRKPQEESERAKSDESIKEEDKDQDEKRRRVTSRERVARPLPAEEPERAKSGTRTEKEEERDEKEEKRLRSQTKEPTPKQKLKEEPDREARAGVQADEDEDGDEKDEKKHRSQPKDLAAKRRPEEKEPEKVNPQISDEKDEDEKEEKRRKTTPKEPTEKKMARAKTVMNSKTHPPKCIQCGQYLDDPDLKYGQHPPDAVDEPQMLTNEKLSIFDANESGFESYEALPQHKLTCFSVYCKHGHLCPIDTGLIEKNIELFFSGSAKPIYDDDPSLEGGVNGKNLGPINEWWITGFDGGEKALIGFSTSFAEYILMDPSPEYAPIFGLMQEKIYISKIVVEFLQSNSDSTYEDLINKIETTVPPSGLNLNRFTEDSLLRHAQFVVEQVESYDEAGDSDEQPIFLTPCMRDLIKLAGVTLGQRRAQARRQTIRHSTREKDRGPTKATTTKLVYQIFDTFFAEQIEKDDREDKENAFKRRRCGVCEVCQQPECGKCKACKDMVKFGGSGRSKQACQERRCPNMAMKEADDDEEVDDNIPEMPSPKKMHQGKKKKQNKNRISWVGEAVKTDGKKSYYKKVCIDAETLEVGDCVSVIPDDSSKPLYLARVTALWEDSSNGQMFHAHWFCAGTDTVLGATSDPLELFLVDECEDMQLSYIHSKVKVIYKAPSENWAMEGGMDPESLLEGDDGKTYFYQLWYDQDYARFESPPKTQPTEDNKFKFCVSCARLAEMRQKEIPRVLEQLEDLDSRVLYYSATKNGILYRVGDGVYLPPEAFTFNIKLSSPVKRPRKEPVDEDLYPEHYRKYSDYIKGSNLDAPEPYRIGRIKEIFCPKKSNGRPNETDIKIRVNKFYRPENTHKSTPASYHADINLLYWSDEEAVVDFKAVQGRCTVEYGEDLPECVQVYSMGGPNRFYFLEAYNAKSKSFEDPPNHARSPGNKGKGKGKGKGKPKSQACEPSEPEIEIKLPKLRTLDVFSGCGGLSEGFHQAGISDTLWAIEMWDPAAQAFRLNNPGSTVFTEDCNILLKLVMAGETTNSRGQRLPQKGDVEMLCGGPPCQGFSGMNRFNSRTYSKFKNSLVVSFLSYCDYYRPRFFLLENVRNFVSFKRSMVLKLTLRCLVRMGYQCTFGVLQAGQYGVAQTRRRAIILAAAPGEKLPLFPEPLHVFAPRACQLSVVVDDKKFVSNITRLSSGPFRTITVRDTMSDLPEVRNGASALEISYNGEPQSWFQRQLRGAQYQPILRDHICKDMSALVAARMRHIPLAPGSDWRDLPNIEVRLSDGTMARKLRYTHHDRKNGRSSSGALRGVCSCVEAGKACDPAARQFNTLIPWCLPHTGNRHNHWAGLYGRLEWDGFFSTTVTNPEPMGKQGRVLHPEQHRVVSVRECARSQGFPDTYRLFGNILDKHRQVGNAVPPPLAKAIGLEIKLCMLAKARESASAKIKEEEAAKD
Test: Induction of thermal stabilization of N-terminal 6xHis-FLAG-tagged […] human DNMT1 (698 to 1616 residues) extracted from Sf9 cells assessed as change in melting temperature at 10 uM by SYPRO Orange dye based PTS assay (reference value: 0.0 degreeC)
Assay type: cell-based
PROPERTY_LABEL: ΔTm

- COMPOUND: "CCc1c(C#N)c(SC(C(N)=O)c2ccccc2)nc(N2CCC(N)CC2)c1C#N (centres undefined)"
  ASSAYED_SYSTEM: "DNA (cytosine-5)-methyltransferase 1 (Homo sapiens, UniProt P26358)"
  PROPERTY_LABEL: "ΔTm"
  READING: "8 °C"
- COMPOUND: "CCc1c(C#N)c(S[C@H](C(N)=O)c2ccccc2)nc(N2CCC(CNCc3ccc(/C=C/C(=O)NO)cc3)CC2)c1C#N"
  ASSAYED_SYSTEM: "DNA (cytosine-5)-methyltransferase 1 (Homo sapiens, UniProt P26358)"
  PROPERTY_LABEL: "ΔTm"
  READING: "9 °C"
- COMPOUND: "CCc1c(C#N)c(SC(C(N)=O)c2ccccc2)nc(N2CCC(CNCc3ccc(/C=C/C(=O)NO)cc3)CC2)c1C#N (centres undefined)"
  ASSAYED_SYSTEM: "DNA (cytosine-5)-methyltransferase 1 (Homo sapiens, UniProt P26358)"
  PROPERTY_LABEL: "ΔTm"
  READING: "11 °C"
- COMPOUND: "CCc1c(C#N)c(S[C@@H](C(N)=O)c2ccccc2)nc(N2CCC(CNCc3ccc(/C=C/C(=O)NO)cc3)CC2)c1C#N"
  ASSAYED_SYSTEM: "DNA (cytosine-5)-methyltransferase 1 (Homo sapiens, UniProt P26358)"
  PROPERTY_LABEL: "ΔTm"
  READING: "11.5 °C"
